Known enhancement of a selection of molecules
target: Thyrotropin-releasing hormone receptor (Homo sapiens); assay: qHTS for Small Molecule Agonists and Allosteric Enhancers of Human TRH Receptor: Primary Screen for Enhancers; conditions: TRHR cells, fluo-8 calcium fluorescence, EC20 TRH enhancement; at 2 µM; stronger effect = higher value; also: 0% is about no effect
Among all 360,000 compounds or so, about 2,400 (0.67%) were called active. The sample holds actives, similar compounds and a random draw of the others, so the mix is not that of the screen.
Test Readout: enhancement (%)

COC1=C/C(=C/c2c(N)n3nc(CC(=O)N4CCOCC4)sc3nc2=O)C=CC1=O | 2.92
C=CCC1=C/C(=C\c2c(N)n3nc(CC(=O)N4CCOCC4)sc3nc2=O)C=C(OC)C1=O | 52.7
Cc1ccc(S(=O)(=O)N2CCN(C)CC2)cc1 | 33.6
Cn1c(SCC(=O)N2CCCc3ccccc32)ncc(C(=O)Nc2ccc(F)cc2)c1=O | 7.76
Cc1ccc(C)c(N2CCN(S(=O)(=O)c3ccc4c(c3)C(C(C)C)C(=O)N4)CC2)c1 (stereo not given) | -4.92

Source listed as PubChem BioAssay AID493056.
